Growth Rate: recorded values
System: Fibroblast
Assay: Incucyte cell viability with human fibroblast; note: unitless GR value; below 1 slowed growth and below 0 cell loss
Type: toxicity, cell-based
Details: 24 h, 10 µM, compound concentration 10 uM, replicate number 1, timepoint 24 hours

{"compound": "Cc1cc(CN)cc(C)c1-c1ncn(C)c1-c1ccnc2cc(F)ccc12", "testedSystem": "Fibroblast", "Growth Rate": 0.09}
{"compound": "CN(C)CCN(Cc1ccc(-c2ccc(CNCCc3ccccc3)cc2)cc1)C(=O)CCC1CCCC1.Cl.Cl", "testedSystem": "Fibroblast", "Growth Rate": -0.93}
{"compound": "Oc1c(CN2CCN(c3ccccn3)CC2)cc(Cl)c2cccnc12", "testedSystem": "Fibroblast", "Growth Rate": 0.65}
{"compound": "Cl.O=C(O)c1cc(-c2ccc(C3CCNCC3)cc2)c2ccc(-c3ccc(C(F)(F)F)cc3)cc2c1", "testedSystem": "Fibroblast", "Growth Rate": 0.06}
{"compound": "CCCn1c(=O)c2[nH]c(C3CCCC3)nc2n(CCC)c1=O", "testedSystem": "Fibroblast", "Growth Rate": -0.1}
{"compound": "CNC(=O)[C@H]1O[C@@H](n2cnc3c(NCc4cccc(I)c4)ncnc32)[C@H](O)[C@@H]1O", "testedSystem": "Fibroblast", "Growth Rate": 0.54}
{"compound": "CC(C)Oc1ccc(Cc2ccc(NC3=NCCN3)cc2)cc1", "testedSystem": "Fibroblast", "Growth Rate": 0.42}
{"compound": "O=C1COc2nccc(-c3ccccc3F)c2CN1Cc1cc(C(F)(F)F)cc(C(F)(F)F)c1", "testedSystem": "Fibroblast", "Growth Rate": 0.73}
{"compound": "Cc1cc(NC(=O)NCCN2CCC(O)(Cc3ccccc3)CC2)c2ccccc2n1", "testedSystem": "Fibroblast", "Growth Rate": 0.22}
{"compound": "CN1CCc2cc(Cl)c(O)cc2[C@@H](c2ccccc2)C1.Cl", "testedSystem": "Fibroblast", "Growth Rate": 0.88}
{"compound": "Br.CS(=O)(=O)Nc1c(O)ccc2c1CCCC2C1=NCCN1 (configuration not stated)", "testedSystem": "Fibroblast", "Growth Rate": 0.94}
{"compound": "Nc1nc(Nc2ccccc2)nc2c1ncn2[C@@H]1O[C@H](CO)[C@@H](O)[C@H]1O", "testedSystem": "Fibroblast", "Growth Rate": 0.93}
{"compound": "Br.Br.N=C(N)NCCSC(=N)N", "testedSystem": "Fibroblast", "Growth Rate": 0.49}
{"compound": "COc1cc(Nc2ncc3c(n2)-c2ccc(Cl)cc2C(c2c(F)cccc2OC)=NC3)ccc1C(=O)O", "testedSystem": "Fibroblast", "Growth Rate": -0.39}
{"compound": "CN(C)C(=O)Cn1cc(-c2ccc(-c3nnc4ccccn34)cc2)cn1", "testedSystem": "Fibroblast", "Growth Rate": 0.56}
{"compound": "O=C(NC[C@@H]1[C@H]2CN(C(=O)OCc3cc(C(F)(F)F)cc(C(F)(F)F)c3)C[C@@H]12)c1ccc2[nH]nnc2c1", "testedSystem": "Fibroblast", "Growth Rate": -0.35}
{"compound": "CC(C)C[C@H](CO)Nc1nc(S[C@@H](C)c2ccccc2)nc2nc(N)sc12", "testedSystem": "Fibroblast", "Growth Rate": 0.54}
{"compound": "CCc1cc2cc(NS(=O)(=O)c3ccc(C#N)cc3)ccc2n(CC)c1=O", "testedSystem": "Fibroblast", "Growth Rate": -0.17}
{"compound": "Brc1c(N=C2NCCN2)ccc2nccnc12.O=C(O)C(O)C(O)C(=O)O", "testedSystem": "Fibroblast", "Growth Rate": 0.87}
{"compound": "COc1ccncc1C(=O)NC(=O)Nc1ccc(-c2ccccc2)c(C(F)(F)F)c1", "testedSystem": "Fibroblast", "Growth Rate": 0.92}
{"compound": "CCCCC/C=C\\C/C=C\\C/C=C\\C/C=C\\CCCC(=O)OC(CO)CO", "testedSystem": "Fibroblast", "Growth Rate": 0.93}
{"compound": "CCC(=O)N1CC[C@H](Nc2ncnc3c2CN(c2cnc(OC)c(C(F)(F)F)c2)CC3)C1", "testedSystem": "Fibroblast", "Growth Rate": 0.72}
{"compound": "CC(/C=C1\\SC(=S)N(CCCC(=O)Nc2ccc(C(=O)O)c(O)c2)C1=O)=C\\c1ccccc1", "testedSystem": "Fibroblast", "Growth Rate": 0.83}
{"compound": "CC(C)(C)c1ccc(CSc2cnn(C(C)(C)C)c(=O)c2Cl)cc1", "testedSystem": "Fibroblast", "Growth Rate": -0.12}
{"compound": "CC(C)CC(=O)Nc1cncc(-c2ccc3[nH]nc(-c4nc5c(-c6cccc(F)c6)cncc5[nH]4)c3c2)c1", "testedSystem": "Fibroblast", "Growth Rate": 0.43}
{"compound": "CSCC[C@H](NC=O)C(=O)N[C@@H](CC(C)C)C(=O)N[C@@H](Cc1ccccc1)C(=O)O", "testedSystem": "Fibroblast", "Growth Rate": 0.27}
{"compound": "N=C(N)NCCC[C@@H](NC(=O)C(c1ccccc1)c1ccccc1)C(=O)NCc1ccc(CNC(N)=O)cc1.O=C(O)C(F)(F)F.O=C(O)C(F)(F)F", "testedSystem": "Fibroblast", "Growth Rate": 0.52}
{"compound": "Cc1ccccc1C(=O)Nc1ccc(C(=O)N2CCCC(N(C)C)c3ccccc32)cc1.Cl (configuration not stated)", "testedSystem": "Fibroblast", "Growth Rate": -0.44}
{"compound": "CC[C@@H](C)Nc1nc(C)nc2c(-c3ccc(OC)nc3C)c(C)nn12", "testedSystem": "Fibroblast", "Growth Rate": -0.13}
{"compound": "CCCCCCCCCCCCCCC[C@@H](O)[C@@H](N)COP(=O)(O)O", "testedSystem": "Fibroblast", "Growth Rate": 0.23}
{"compound": "N#Cc1cc(F)cc(-c2nc(-c3ccc(F)cn3)no2)c1", "testedSystem": "Fibroblast", "Growth Rate": 0.6}
{"compound": "CN(C)[C@H]1CN(C2CCc3cccc(F)c32)C[C@@H]1c1ccc(N2CCN(S(C)(=O)=O)CC2)cc1 (some centres not stated)", "testedSystem": "Fibroblast", "Growth Rate": 0.75}
{"compound": "CC(C)Oc1ccc(-c2nc(-c3cccc4c3CC[C@@H]4NCCO)no2)cc1C#N", "testedSystem": "Fibroblast", "Growth Rate": -0.09}
{"compound": "Cc1nn(C)c(C)c1-c1cccc2c1CC[C@H](N(C)C)C2", "testedSystem": "Fibroblast", "Growth Rate": 0.61}
{"compound": "CC(C)N(CCCCOCC(=O)NS(C)(=O)=O)c1cnc(-c2ccccc2)c(-c2ccccc2)n1", "testedSystem": "Fibroblast", "Growth Rate": 0.48}
{"compound": "CCNC1(C(N)=O)CCN(c2ncnc3c2nc(-c2ccccc2Cl)n3-c2ccc(Cl)cc2)CC1", "testedSystem": "Fibroblast", "Growth Rate": -0.07}
{"compound": "CO[C@H]1CC[C@@H](C(=O)c2ccc3nc4c(cc3c2)CCCO4)CC1", "testedSystem": "Fibroblast", "Growth Rate": 0.48}
